Entries and their measured pKi follow.
subject.of.test: Sigma non-opioid intracellular receptor 1 (Cavia porcellus)
Sequence (Q60492 whole entry): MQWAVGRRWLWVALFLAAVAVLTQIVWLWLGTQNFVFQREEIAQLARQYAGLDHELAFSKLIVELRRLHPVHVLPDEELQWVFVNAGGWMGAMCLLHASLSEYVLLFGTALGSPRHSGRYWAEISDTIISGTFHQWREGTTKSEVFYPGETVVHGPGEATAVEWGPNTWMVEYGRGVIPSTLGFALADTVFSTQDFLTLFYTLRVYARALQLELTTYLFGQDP
procedure.text: Displacement of (+)-[3H]pentazocine from sigma 1 receptor in guinea pig brain membrane homogenates after 90 mins by liquid scintillation counting
pKi: −log10 of the molar value.
outcome.measure: pKi

| compound | measured |
| --- | --- |
| O[C@@H]1CCN(Cc2cccc(I)c2)C[C@H]1N1CCC(c2ccccc2)CC1 | 7.04 |
| O[C@@H]1CCCC[C@H]1N1CCC(c2ccccc2)CC1 [VESAMICOL] | 7.13 |
| Cc1ccc(C2CCN([C@@H]3CCCC[C@H]3O)CC2)cc1 | 8.09 |

---

procedure.text: Displacement of [3H]-DTG from sigma 2 receptor in rat liver membrane homogenates after 2 hrs by liquid scintillation counting
Type: cell membranes
pKi: −log10 of the molar value.

| molecule | pKi |
| --- | --- |
| O[C@@H]1CCCC[C@H]1N1CCC(c2ccccc2)CC1 [VESAMICOL] | 6.46 |
| COc1ccc(CCN2CCN(CCCc3ccccc3)CC2)cc1OC | 6.62 |
| O=C(c1ccc(F)cc1)C1CCN([C@H]2CN(Cc3cccnc3)CC[C@@H]2O)CC1 (relative stereo) | 4.89 |
| O[C@@H]1CCN(Cc2cccc(I)c2)C[C@H]1N1CCC(c2ccccc2)CC1 | 6.72 |
| O[C@@H]1CCN(Cc2ccc(F)cc2)C[C@H]1N1CCC(c2ccccc2)CC1 | 7.44 |

---

procedure.text: Displacement of [3H]-DTG from sigma 2 receptor in rat liver membrane homogenates after 2 hrs by liquid scintillation counting
Assay type: cell membranes
pKi: −log10 of the molar value.

| compound | pKi |
| --- | --- |
| Cc1ccc(C2CCN([C@@H]3CCCC[C@H]3O)CC2)cc1 | 7.37 |
| O=C(c1ccc(F)cc1)C1CCN([C@H]2CCN(C(=O)c3ccc(F)cc3)C[C@@H]2O)CC1 (relative stereo) | 5.06 |
| COc1ccc(C(=O)C2CCN([C@H]3CN(Cc4cccnc4)CC[C@@H]3O)CC2)cc1 (relative stereo) | 4.77 |
| COc1ccc(C(=O)C2CCN([C@H]3CN(Cc4ccccc4)CC[C@@H]3O)CC2)cc1 (relative stereo) | 5.07 |
